# Procedure Text: Pharmacokinetics of CBP501, single agent study
# Format: in vivo, human
# Measurement Conditions: human, in vivo, 0.9 mg/m2, single agent, 0.9 mg/m^2, Day 1, mean, N 4
Structures can show the parent of a compound that is named as a salt. Square brackets hold non-standard residues; d marks the D form. Peptide text beside a SMILES is read from it. dPhe(F5) = N[C@H](Cc1c(F)c(F)c(F)c(F)c1F)C(=O)O; dBpa = N[C@H](Cc1ccc(C(=O)c2ccccc2)cc1)C(=O)O; dCha = N[C@H](CC1CCCCC1)C(=O)O
Measure: Cmax (µg/mL)
Form entry: value (µg/mL) — number only.

The reported value for N=C(N)NCCC[C@@H](NC(=O)[C@@H](CCCNC(=N)N)NC(=O)[C@@H](CCC(N)=O)NC(=O)[C@@H](CCCNC(=N)N)NC(=O)[C@@H](CCCNC(=N)N)NC(=O)[C@@H](CCCNC(=N)N)NC(=O)[C@@H](CC1CCCCC1)NC(=O)[C@@H](Cc1c(F)c(F)c(F)c(F)c1F)NC(=O)[C@@H](CO)NC(=O)[C@@H](Cc1c[nH]c2ccccc12)NC(=O)[C@@H](CO)NC(=O)[C@H](N)Cc1ccc(C(=O)c2ccccc2)cc1)C(=O)O [CBP501, acetate salt] (H-[dBpa][dS][dW][dS][dPhe(F5)][dCha][dR][dR][dR][dQ][dR][dR]-OH) in terms of Cmax is 0.121

* * *

# Procedure Text: Pharmacokinetics of CBP501, single agent study
# Type: in vivo, human
# Measurement Conditions: human, in vivo, 9.57 mg/m2, single agent, 9.57 mg/m^2, Day 15, mean, N 2
Where a name gives a salt, the structure may show the parent alone. Square brackets hold non-standard residues; d marks the D form. Peptide text beside a SMILES is read from it. dPhe(F5) = N[C@H](Cc1c(F)c(F)c(F)c(F)c1F)C(=O)O; dBpa = N[C@H](Cc1ccc(C(=O)c2ccccc2)cc1)C(=O)O; dCha = N[C@H](CC1CCCCC1)C(=O)O
Measure: half-life (h)
Just the number in h, nothing appended.

GET /value?item= N=C(N)NCCC[C@@H](NC(=O)[C@@H](CCCNC(=N)N)NC(=O)[C@@H](CCC(N)=O)NC(=O)[C@@H](CCCNC(=N)N)NC(=O)[C@@H](CCCNC(=N)N)NC(=O)[C@@H](CCCNC(=N)N)NC(=O)[C@@H](CC1CCCCC1)NC(=O)[C@@H](Cc1c(F)c(F)c(F)c(F)c1F)NC(=O)[C@@H](CO)NC(=O)[C@@H](Cc1c[nH]c2ccccc12)NC(=O)[C@@H](CO)NC(=O)[C@H](N)Cc1ccc(C(=O)c2ccccc2)cc1)C(=O)O [CBP501, acetate salt] (H-[dBpa][dS][dW][dS][dPhe(F5)][dCha][dR][dR][dR][dQ][dR][dR]-OH) &field=half-life returns 1.2

* * *

# Procedure Text: Pharmacokinetics of CBP501, single agent study
# Assay type: in vivo, human
# Measurement Conditions: human, in vivo, 22.5 mg/m2, single agent, 22.5 mg/m^2, Day 15, mean, N 5
Structures can show the parent of a compound that is named as a salt. Square brackets hold non-standard residues; d marks the D form. Peptide text beside a SMILES is read from it. dPhe(F5) = N[C@H](Cc1c(F)c(F)c(F)c(F)c1F)C(=O)O; dBpa = N[C@H](Cc1ccc(C(=O)c2ccccc2)cc1)C(=O)O; dCha = N[C@H](CC1CCCCC1)C(=O)O
Measure: Cmax (ng/mL)
Just the number in ng/mL, nothing appended.

Please fill in: Cmax reported for N=C(N)NCCC[C@@H](NC(=O)[C@@H](CCCNC(=N)N)NC(=O)[C@@H](CCC(N)=O)NC(=O)[C@@H](CCCNC(=N)N)NC(=O)[C@@H](CCCNC(=N)N)NC(=O)[C@@H](CCCNC(=N)N)NC(=O)[C@@H](CC1CCCCC1)NC(=O)[C@@H](Cc1c(F)c(F)c(F)c(F)c1F)NC(=O)[C@@H](CO)NC(=O)[C@@H](Cc1c[nH]c2ccccc12)NC(=O)[C@@H](CO)NC(=O)[C@H](N)Cc1ccc(C(=O)c2ccccc2)cc1)C(=O)O [CBP501, acetate salt] (H-[dBpa][dS][dW][dS][dPhe(F5)][dCha][dR][dR][dR][dQ][dR][dR]-OH) = 7490

* * *

# Procedure Text: Pharmacokinetics of CBP501, combination study
# Format: in vivo, human
# Measurement Conditions: human, in vivo, combination with cisplatin, CBP501 10.8 mg/m^2, Day 1, mean, N 5
Counter-ions that a name gives are not always drawn. Square brackets hold non-standard residues; d marks the D form. Peptide text beside a SMILES is read from it. dPhe(F5) = N[C@H](Cc1c(F)c(F)c(F)c(F)c1F)C(=O)O; dBpa = N[C@H](Cc1ccc(C(=O)c2ccccc2)cc1)C(=O)O; dCha = N[C@H](CC1CCCCC1)C(=O)O
Measure: half-life
Include the unit right after the number.

The molecule listed as N=C(N)NCCC[C@@H](NC(=O)[C@@H](CCCNC(=N)N)NC(=O)[C@@H](CCC(N)=O)NC(=O)[C@@H](CCCNC(=N)N)NC(=O)[C@@H](CCCNC(=N)N)NC(=O)[C@@H](CCCNC(=N)N)NC(=O)[C@@H](CC1CCCCC1)NC(=O)[C@@H](Cc1c(F)c(F)c(F)c(F)c1F)NC(=O)[C@@H](CO)NC(=O)[C@@H](Cc1c[nH]c2ccccc12)NC(=O)[C@@H](CO)NC(=O)[C@H](N)Cc1ccc(C(=O)c2ccccc2)cc1)C(=O)O [CBP501, acetate salt] (H-[dBpa][dS][dW][dS][dPhe(F5)][dCha][dR][dR][dR][dQ][dR][dR]-OH) shows half-life equal to 1.7 h

* * *

# Procedure Text: Pharmacokinetics of CBP501, single agent study
# Assay type: in vivo, human
# Measurement Conditions: human, in vivo, […]2, single agent, […]^2, Day 1, mean, N 4
Structures can show the parent of a compound that is named as a salt. Square brackets hold non-standard residues; d marks the D form. Peptide text beside a SMILES is read from it. dPhe(F5) = N[C@H](Cc1c(F)c(F)c(F)c(F)c1F)C(=O)O; dBpa = N[C@H](Cc1ccc(C(=O)c2ccccc2)cc1)C(=O)O; dCha = N[C@H](CC1CCCCC1)C(=O)O
Measure: clearance (mL/min/kg)
Number only, in mL/min/kg; omit the unit.

Form: molecule = N=C(N)NCCC[C@@H](NC(=O)[C@@H](CCCNC(=N)N)NC(=O)[C@@H](CCC(N)=O)NC(=O)[C@@H](CCCNC(=N)N)NC(=O)[C@@H](CCCNC(=N)N)NC(=O)[C@@H](CCCNC(=N)N)NC(=O)[C@@H](CC1CCCCC1)NC(=O)[C@@H](Cc1c(F)c(F)c(F)c(F)c1F)NC(=O)[C@@H](CO)NC(=O)[C@@H](Cc1c[nH]c2ccccc12)NC(=O)[C@@H](CO)NC(=O)[C@H](N)Cc1ccc(C(=O)c2ccccc2)cc1)C(=O)O [CBP501, acetate salt] (H-[dBpa][dS][dW][dS][dPhe(F5)][dCha][dR][dR][dR][dQ][dR][dR]-OH) ; clearance = 0.867

* * *

# Procedure Text: Pharmacokinetics of CBP501, single agent study
# Format: in vivo, human
# Measurement Conditions: human, in vivo, […]2, single agent, […]^2, Day 15, mean, N 3
# Description: PK was examined in cycle (cy) 1. MTD is the level below that where 2 of 3-6 patients (pts) have DLT during cy 1-2. In the single agent study, PK was examined in cycle 1. Samples were collected on Days 1 and 15 before the start of the infusion, then at various time points over 24 hr from the start of the infusion, as described below.
Counter-ions that a name gives are not always drawn. Square brackets hold non-standard residues; d marks the D form. Peptide text beside a SMILES is read from it. dPhe(F5) = N[C@H](Cc1c(F)c(F)c(F)c(F)c1F)C(=O)O; dBpa = N[C@H](Cc1ccc(C(=O)c2ccccc2)cc1)C(=O)O; dCha = N[C@H](CC1CCCCC1)C(=O)O
Measure: half-life (h)
Note: unit h is implicit; provide only the numeric part.

Note to self: half-life recorded for N=C(N)NCCC[C@@H](NC(=O)[C@@H](CCCNC(=N)N)NC(=O)[C@@H](CCC(N)=O)NC(=O)[C@@H](CCCNC(=N)N)NC(=O)[C@@H](CCCNC(=N)N)NC(=O)[C@@H](CCCNC(=N)N)NC(=O)[C@@H](CC1CCCCC1)NC(=O)[C@@H](Cc1c(F)c(F)c(F)c(F)c1F)NC(=O)[C@@H](CO)NC(=O)[C@@H](Cc1c[nH]c2ccccc12)NC(=O)[C@@H](CO)NC(=O)[C@H](N)Cc1ccc(C(=O)c2ccccc2)cc1)C(=O)O [CBP501, acetate salt] (H-[dBpa][dS][dW][dS][dPhe(F5)][dCha][dR][dR][dR][dQ][dR][dR]-OH) was 1.6
